Values were extracted from ChEMBL document CHEMBL2424642.

Molecular target: Glucocorticoid receptor (GR-LBD) (Homo sapiens)
Sequence (P04150 whole entry, the tested form may be a part): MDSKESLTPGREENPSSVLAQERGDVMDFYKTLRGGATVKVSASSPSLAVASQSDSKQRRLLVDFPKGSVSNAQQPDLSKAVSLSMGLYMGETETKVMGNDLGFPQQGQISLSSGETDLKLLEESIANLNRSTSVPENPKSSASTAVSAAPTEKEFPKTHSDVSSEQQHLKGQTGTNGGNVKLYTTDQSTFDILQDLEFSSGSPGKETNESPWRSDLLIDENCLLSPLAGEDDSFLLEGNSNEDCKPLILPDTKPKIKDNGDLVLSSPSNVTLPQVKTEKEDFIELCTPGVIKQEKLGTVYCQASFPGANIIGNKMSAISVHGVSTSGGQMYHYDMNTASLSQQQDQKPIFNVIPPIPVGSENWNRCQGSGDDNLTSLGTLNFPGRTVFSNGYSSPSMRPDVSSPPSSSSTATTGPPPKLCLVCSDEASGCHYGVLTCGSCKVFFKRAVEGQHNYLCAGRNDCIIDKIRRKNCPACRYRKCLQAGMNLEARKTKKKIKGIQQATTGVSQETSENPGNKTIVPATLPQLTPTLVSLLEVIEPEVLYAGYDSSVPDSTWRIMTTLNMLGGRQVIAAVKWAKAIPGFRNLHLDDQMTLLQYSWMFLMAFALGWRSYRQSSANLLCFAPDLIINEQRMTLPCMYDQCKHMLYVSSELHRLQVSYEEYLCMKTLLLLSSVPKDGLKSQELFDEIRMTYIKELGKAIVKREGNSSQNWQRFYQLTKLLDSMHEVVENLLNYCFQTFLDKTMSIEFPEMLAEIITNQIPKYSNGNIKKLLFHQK
Assay: Transactivation of GR-LBD expressed in human HeLa cells co-expressing GAL4-DBD by luciferase reporter gene assayrelative to dexamethasone
Format: cell-based
Conditions: HeLa cells expressing GR-LBD and GAL4-DBD, read-out: Efficacy
Readout type: Emax (%)
Express your answer in %, writing the number without its unit.

What Emax value was documented for this molecule, CC(C)(C(=O)Nc1nccs1)C(c1ccccc1)c1ccc2c(-c3ccc(F)cc3)ncn2c1 (stereo unspecified) ?
74

Return reported Emax; argument: CC(C)(C(=O)Nc1nncs1)C(c1ccccc1)c1ccn2c(-c3ccccc3)ncc2c1 (single isomer, unassigned; enantiomer 2)
43

Given the entry CC(C)(C(=O)Nc1nncs1)C(c1ccccc1)c1ccc2c(-c3ccc(F)cc3)ncn2c1 (stereo unspecified) , report its measured Emax.
66

Tell me the measured Emax of CC(C)(C(=O)Nc1nncs1)C(c1ccccc1)c1ccc2c(-c3ccc(F)cc3F)ncn2c1 (stereo unspecified) , please.
61

Any idea what Emax was measured for CC(C)(C(=O)Nc1nccs1)C(c1ccccc1)c1ccc2c(-c3ccc(F)cc3F)ncn2c1 (stereo unspecified) ?
73

Bench note: what Emax did CC(C)(C(=O)Nc1nccs1)C(c1ccccc1)c1ccn2c(-c3ccccc3)ncc2c1 (stereo unspecified) show?
32
